Parameter viability, T/C: see the listing below.
Test system: 596521-263-R-J1-PDC complex spheroids, viability % of control;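 note: spheroids exposed to drugs for 7 days before viability reading; 100% = DMSO vehicle control viability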
Experiment: Anticancer human tumor 596521-263-R-J1-PDC patient-derived soft tissue sarcoma cell line growth inhibition [GQUAD]
Details: second compound 0.316 µM; first compound 3.16 µM; stronger effect = lower value
Text: DNA G-quadruplex Stabilizer Agents in Combinations in Complex Spheroids A high-throughput screen of multi-cell type tumor spheroids was designed to identify active combinations of DNA G-quadruplex stabilizer agents and targeted small molecules. […] Compounds. […] If the clinical Cmax for an agent had not been determined, the highest concentration tested was 10 microM. […]
Please give a number only; it is taken to be in %.

Query (molecule): COc1ccc([C@@H](O)c2cc(-c3ncnc4cc(N5CCOCC5)ccc34)c(F)cc2Cl)nn1 + Cc1[nH]c2ccc(F)cc2c1-c1nc2c3cccnc3c3ncccc3c2[nH]1 ; field requested: viability, T/C
72.2

One more molecule: CC(=O)O[C@H]1C(=O)[C@@]2(C)[C@H]([C@H](OC(=O)c3ccccc3)[C@]3(O)C[C@H](OC(=O)[C@H](O)[C@@H](NC(=O)c4ccccc4)c4ccccc4)C(C)=C1C3(C)C)[C@]1(OC(C)=O)CO[C@@H]1C[C@@H]2O + Cc1cnc(CNC(=O)c2c(=O)c3ccc(N4CCCN(C)CC4)nc3n3c2sc2ccccc23)cn1
29

Try this molecule too: O=C(c1cc(Cc2n[nH]c(=O)c3ccccc23)ccc1F)N1CCN(C(=O)C2CC2)CC1 + Cc1[nH]c2ccc(F)cc2c1-c1nc2c3cccnc3c3ncccc3c2[nH]1
78.5

Now give it for Cc1cccc(N(C)C(=O)C2C(O)CCN2c2nc(C)cc(C(F)(F)F)c2C#N)c1 (centres undefined) + Cc1cnc(CNC(=O)c2c(=O)c3ccc(N4CCCN(C)CC4)nc3n3c2sc2ccccc23)cn1 too.
85.4

Now the molecule CC1COCCN1c1cc(C2(O)CC3CCC(C2)O3)c2cnn(-c3ccn[nH]3)c2n1 (centres undefined) + CN(C)c1ccc(Nc2c3ccc(NC(=O)CCN4CCCC4)cc3nc3cc(NC(=O)CCN4CCCC4)ccc23)cc1
20.4

// repeat for CC1COCCN1c1cc(C2(S(C)(=N)=O)CC2)nc(-c2ccnc3[nH]ccc23)n1 (centres undefined) + Cc1cnc(CNC(=O)c2c(=O)c3ccc(N4CCCN(C)CC4)nc3n3c2sc2ccccc23)cn1 and report
55.6

Please do the same for C=CCn1c(=O)c2cnc(Nc3ccc(N4CCN(C)CC4)cc3)nc2n1-c1cccc(C(C)(C)O)n1 + CN(C)c1ccc(Nc2c3ccc(NC(=O)CCN4CCCC4)cc3nc3cc(NC(=O)CCN4CCCC4)ccc23)cc1 as well.
46.1

# repeat for O=C(NO)c1cnc(N2CCN(S(=O)(=O)c3ccc4ccccc4c3)CC2)nc1 + Cc1[nH]c2ccc(F)cc2c1-c1nc2c3cccnc3c3ncccc3c2[nH]1
26.9

Field entry: COc1cccc2c1C(=O)c1c(O)c3c(c(O)c1C2=O)CC(O)(C(=O)CO)CC3OC1CC(N)C(O)C(C)O1 (centres undefined) + Cc1cnc(CNC(=O)c2c(=O)c3ccc(N4CCCN(C)CC4)nc3n3c2sc2ccccc23)cn1
29
